These entries and their values trace back to the supplement of paper PMC3334620.

- test_system: Cin5 (UniProt P40917)
- Sequence: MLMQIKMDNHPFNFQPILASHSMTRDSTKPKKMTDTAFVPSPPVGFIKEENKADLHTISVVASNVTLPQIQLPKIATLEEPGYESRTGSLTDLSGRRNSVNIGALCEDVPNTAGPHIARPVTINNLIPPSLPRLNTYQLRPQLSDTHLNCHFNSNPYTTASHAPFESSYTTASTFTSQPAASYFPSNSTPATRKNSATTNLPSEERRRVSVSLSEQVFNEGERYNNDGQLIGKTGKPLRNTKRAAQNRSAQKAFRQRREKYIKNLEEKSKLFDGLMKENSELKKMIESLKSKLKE
- test_protocol: PBM E-score (8-mer binding enrichment) (E-score (-0.5 to 0.5)); higher = stronger / more preferred TF binding
- protocol_conditions: protein concentration: 100 nM; construct: GST-full length
The full ranking holds about 33,000 sequences; the median of “E-score (-0.5 to 0.5)” is about -0.0059, and the highest 2% start at about 0.26. The sample as a whole holds a higher share of the highest values than the screen did.
Listed below: PBM E-score values for each entry.
observable: PBM E-score

biopolymer_sequence | result
GTGTTGTA | 0.0125
ATGTTGTG | 0.151
GAATTCCA | 0.173
ATGTATTG | 0.304
ACTATATA | 0.309
ATTATCCA | 0.122
CTTATACA | 0.0656
ACTATATC | 0.214
GCTATATA | 0.153
GCGTATTA | 0.0794
ATTATCCG | 0.289

----------
- test_system: Cin5 (UniProt P40917)
- Sequence: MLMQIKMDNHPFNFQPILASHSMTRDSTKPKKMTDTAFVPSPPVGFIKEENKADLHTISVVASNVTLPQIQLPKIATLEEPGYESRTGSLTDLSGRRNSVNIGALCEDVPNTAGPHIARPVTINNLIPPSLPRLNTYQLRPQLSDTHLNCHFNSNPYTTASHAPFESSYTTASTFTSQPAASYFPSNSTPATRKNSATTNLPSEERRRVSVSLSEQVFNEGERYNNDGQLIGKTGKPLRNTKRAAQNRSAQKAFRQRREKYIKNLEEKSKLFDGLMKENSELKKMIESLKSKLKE
- test_protocol: PBM E-score (8-mer binding enrichment) (E-score (-0.5 to 0.5)); higher = stronger / more preferred TF binding
- protocol_conditions: protein concentration: 100 nM; construct: GST-full length
Over roughly 33,000 sequences, “E-score (-0.5 to 0.5)” has its median near -0.0059; the highest 2% begin near 0.26. This excerpt belongs to a sample that is enriched for the highest values.
# if value of PBM E-score reaches -0.09, tag label 1; if it stays below, tag label 0

biopolymer_sequence | qualitative_label
ATCCTTCC | label 0
AATATCGA | label 1
CACTATGG | label 0
TCCGCTAA | label 1
GAGCCGGA | label 0
CCGGAGTC | label 1
CTTTGGTA | label 0
ACTACCAG | label 1
GATATCGA | label 1
ATTTGGTA | label 1
TGGCCTAA | label 0

----------
Listed below: PBM E-score values for each entry.
- test_system: Cin5 (UniProt P40917)
- Sequence: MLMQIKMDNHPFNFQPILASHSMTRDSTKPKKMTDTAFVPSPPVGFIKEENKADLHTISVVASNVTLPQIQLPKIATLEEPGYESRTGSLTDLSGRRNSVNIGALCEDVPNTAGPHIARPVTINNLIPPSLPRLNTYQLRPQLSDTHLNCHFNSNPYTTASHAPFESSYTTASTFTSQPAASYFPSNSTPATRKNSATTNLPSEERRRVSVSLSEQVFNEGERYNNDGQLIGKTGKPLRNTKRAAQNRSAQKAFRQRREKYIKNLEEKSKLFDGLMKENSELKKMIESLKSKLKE
- test_protocol: PBM E-score (8-mer binding enrichment) (E-score (-0.5 to 0.5)); higher = stronger / more preferred TF binding
- protocol_conditions: protein concentration: 100 nM; construct: GST-full length
Whole data set: some 33,000 sequences, median “E-score (-0.5 to 0.5)” near -0.0059, cut for the highest 2% near 0.26. For the sample, the highest values were picked, then their nearest neighbours and some sequences at random.

biopolymer_sequence | test_system | PBM E-score
GCTTAATA | Cin5 (UniProt P40917) | 0.207
CGGAAATA | Cin5 (UniProt P40917) | 0.33
AAAAAATA | Cin5 (UniProt P40917) | 0.213
CAAATATG | Cin5 (UniProt P40917) | 0.117
ATAGTAGA | Cin5 (UniProt P40917) | 0.139
GGAATCCA | Cin5 (UniProt P40917) | 0.0132
TATGGGGA | Cin5 (UniProt P40917) | 0.27
ATACCATG | Cin5 (UniProt P40917) | 0.0359
TGAGGCCA | Cin5 (UniProt P40917) | 0.0508
CATGGGGA | Cin5 (UniProt P40917) | -0.0804
GTATTCGA | Cin5 (UniProt P40917) | -0.0476
ACCGAAGA | Cin5 (UniProt P40917) | 0.0871
CAATGGTG | Cin5 (UniProt P40917) | -0.161
ATACCATA | Cin5 (UniProt P40917) | 0.259
AACAAATT | Cin5 (UniProt P40917) | 0.274
CTTAGCTC | Cin5 (UniProt P40917) | -0.106
AATGGGGA | Cin5 (UniProt P40917) | 0.0144
CTTTAATA | Cin5 (UniProt P40917) | 0.122
AGTCGGCA | Cin5 (UniProt P40917) | -0.0519
AAAATATC | Cin5 (UniProt P40917) | 0.189
GGCATCTA | Cin5 (UniProt P40917) | -0.0103
ATGGGACA | Cin5 (UniProt P40917) | 0.0583
